The values you see were collected from ChEMBL document CHEMBL1649104.

- MEASURED ON: Sphingosine 1-phosphate receptor 3 (Homo sapiens)
- Sequence (Q99500 whole entry): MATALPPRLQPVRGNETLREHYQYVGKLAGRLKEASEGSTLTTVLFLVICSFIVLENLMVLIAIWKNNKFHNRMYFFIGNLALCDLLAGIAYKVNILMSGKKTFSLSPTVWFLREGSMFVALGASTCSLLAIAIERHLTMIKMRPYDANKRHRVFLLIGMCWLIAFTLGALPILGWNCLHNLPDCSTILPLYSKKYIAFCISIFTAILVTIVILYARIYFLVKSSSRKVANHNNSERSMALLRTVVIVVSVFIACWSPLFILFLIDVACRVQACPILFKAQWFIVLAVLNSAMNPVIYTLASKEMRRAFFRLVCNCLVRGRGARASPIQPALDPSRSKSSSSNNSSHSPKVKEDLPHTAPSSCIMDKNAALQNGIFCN
- ASSAY PROTOCOL: Displacement of [33P]S1P from human S1P3R expressed in CHO cell membranes
pIC50: −log10 of the molar value.
OBSERVATION TYPE: pIC50

The cases that follow already have their pIC50 on record.
[
  {
    "ENTRY SMILES": "CC(C)(C)c1ccc(-c2noc(-c3ccc(CN4CC(C(=O)O)C4)cc3)n2)cc1",
    "MEASURED ON": "Sphingosine 1-phosphate receptor 3 (Homo sapiens)",
    "pIC50": "< 5.00"
  },
  {
    "ENTRY SMILES": "FC(F)(F)c1cccc(-c2noc(-c3cc(-c4ccccc4)c(C(F)(F)F)s3)n2)c1",
    "MEASURED ON": "Sphingosine 1-phosphate receptor 3 (Homo sapiens)",
    "pIC50": "< 5.00"
  },
  {
    "ENTRY SMILES": "CC(C)(C)c1ccc(-c2nnc(-c3ccc(CN4CC(C(=O)O)C4)cc3)o2)cc1",
    "MEASURED ON": "Sphingosine 1-phosphate receptor 3 (Homo sapiens)",
    "pIC50": "< 5.00"
  }
]

Query: Using known records, supply pIC50 for `CC(C)Cc1ccc(-c2nc(-c3ccc(CN4CC(C(=O)O)C4)cc3)no2)cc1`
Response: 4.92
